measuredOn: Nav1.5 (Homo sapiens)
Construct: expressed in transfected cells
Sequence (Q14524 whole entry): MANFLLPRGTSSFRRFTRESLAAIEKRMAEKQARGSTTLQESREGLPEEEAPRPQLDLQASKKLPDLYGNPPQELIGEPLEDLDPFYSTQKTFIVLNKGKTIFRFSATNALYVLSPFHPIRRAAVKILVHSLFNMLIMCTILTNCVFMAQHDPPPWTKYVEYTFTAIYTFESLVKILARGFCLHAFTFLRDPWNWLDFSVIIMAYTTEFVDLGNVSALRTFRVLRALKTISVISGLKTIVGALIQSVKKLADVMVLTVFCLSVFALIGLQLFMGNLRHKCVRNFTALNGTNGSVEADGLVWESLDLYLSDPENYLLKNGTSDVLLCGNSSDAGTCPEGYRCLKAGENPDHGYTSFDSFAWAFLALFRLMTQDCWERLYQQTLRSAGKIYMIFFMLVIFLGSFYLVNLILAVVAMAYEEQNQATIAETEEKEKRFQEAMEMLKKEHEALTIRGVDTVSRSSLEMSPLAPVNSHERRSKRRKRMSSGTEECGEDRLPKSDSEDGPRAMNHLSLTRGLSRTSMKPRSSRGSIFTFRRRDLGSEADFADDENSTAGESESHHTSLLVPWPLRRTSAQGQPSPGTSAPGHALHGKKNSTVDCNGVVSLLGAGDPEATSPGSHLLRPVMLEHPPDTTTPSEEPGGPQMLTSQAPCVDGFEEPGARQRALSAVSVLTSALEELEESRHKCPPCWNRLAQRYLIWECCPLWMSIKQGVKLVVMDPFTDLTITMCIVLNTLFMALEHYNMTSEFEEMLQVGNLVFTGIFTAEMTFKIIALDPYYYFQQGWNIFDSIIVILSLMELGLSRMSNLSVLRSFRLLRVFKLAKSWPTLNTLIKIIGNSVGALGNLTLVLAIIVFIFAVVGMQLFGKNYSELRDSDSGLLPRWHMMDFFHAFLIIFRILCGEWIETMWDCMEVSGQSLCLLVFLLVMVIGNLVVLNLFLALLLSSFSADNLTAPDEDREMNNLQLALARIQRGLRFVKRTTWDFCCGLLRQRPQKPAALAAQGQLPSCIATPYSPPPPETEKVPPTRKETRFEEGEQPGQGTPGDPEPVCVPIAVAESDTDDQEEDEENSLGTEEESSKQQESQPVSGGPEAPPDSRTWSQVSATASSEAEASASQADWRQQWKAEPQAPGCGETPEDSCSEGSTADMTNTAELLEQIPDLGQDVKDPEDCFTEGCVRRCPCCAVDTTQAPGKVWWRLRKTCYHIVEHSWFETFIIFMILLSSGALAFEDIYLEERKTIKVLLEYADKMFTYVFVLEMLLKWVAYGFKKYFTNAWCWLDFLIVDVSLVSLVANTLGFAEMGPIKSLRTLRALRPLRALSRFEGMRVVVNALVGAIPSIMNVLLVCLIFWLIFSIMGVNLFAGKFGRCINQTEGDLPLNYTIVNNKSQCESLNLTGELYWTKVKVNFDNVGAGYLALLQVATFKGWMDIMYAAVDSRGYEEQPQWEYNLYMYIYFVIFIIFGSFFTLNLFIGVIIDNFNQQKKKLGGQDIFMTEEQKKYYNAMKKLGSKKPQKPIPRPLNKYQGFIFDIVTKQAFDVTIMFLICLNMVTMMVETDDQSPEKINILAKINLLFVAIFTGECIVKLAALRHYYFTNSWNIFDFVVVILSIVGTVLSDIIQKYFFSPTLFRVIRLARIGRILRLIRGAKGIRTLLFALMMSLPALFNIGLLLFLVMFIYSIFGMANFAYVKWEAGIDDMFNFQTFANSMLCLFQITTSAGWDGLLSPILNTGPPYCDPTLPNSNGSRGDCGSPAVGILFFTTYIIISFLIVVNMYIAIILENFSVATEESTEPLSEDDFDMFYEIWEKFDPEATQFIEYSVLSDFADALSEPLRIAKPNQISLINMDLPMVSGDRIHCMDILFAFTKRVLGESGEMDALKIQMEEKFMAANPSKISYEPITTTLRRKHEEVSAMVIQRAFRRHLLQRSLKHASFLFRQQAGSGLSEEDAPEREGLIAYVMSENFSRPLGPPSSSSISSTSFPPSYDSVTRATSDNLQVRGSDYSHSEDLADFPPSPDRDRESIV
testDescription: Cardiac profiler panel, Nav1.5 (IonWorks Quattro)
Assay type: cell-based
experimentalConditions: cell line with human Nav1.5 currents (cell line not given), pH 7.3
measuredParameter: inhibition at 600 s, 10 µM (%)

compoundStructureString: Cc1cc(-c2cnc3cc(-c4ccc(N5CCNCC5)cc4)ccn23)c2cc(F)cc(F)c2n1
measuredParameter: inhibition at 600 s, 10 µM
result: 20.2

----------
testDescription: In vivo dose escalation, rat (oral)
experimentalConditions: Dose 100 mg/Kg
Property: half-life; scope: individual compounds

compoundStructureString: Cc1cc(-c2cnc3cc(-c4ccc(N5CCNCC5)cc4)ccn23)c2ccccc2n1
half-life, h: 7.6
//
compoundStructureString: Cc1cc(-c2cnc3cc(-c4ccc(N5CCNCC5)cc4)ccn23)c2cc(F)ccc2n1
half-life, h: 9.5

Source: patent US20190218214A1
